- System: MCF7 breast
- assay-overview: NCI-60 one-dose screen, 48 h (100 = growth as untreated, 0 = no growth, -100 = all killed)
- condition-parameters: 10 µM unless noted
Compounds without any hit were thinned out: in the full panel of roughly 83,000, 20% have a hit.
metric-name: growth (%)
// units = %; emit number, no label

The cases that follow already have their growth on record.
CCn1c(SCC(=O)Nc2cccc(C(=O)/C=C/c3ccc(C)cc3)c2)nc2ccccc2c1=O = 19.7
O=C(O)c1ccc(-n2cc(CNc3cc(F)c(F)c(F)c3)c(-c3ccc(F)cc3)n2)cc1 = 58.3
COc1ccccc1-n1cc(C#N)c(N)c1C(=O)c1ccc(Br)cc1 = 33.5
COc1cc2nc(Cl)nc(Nc3cccc(C4=Nc5c(N)nc(N)nc5NC(c5ccccc5)C4)c3)c2cc1OC (stereo unspecified) = 70.5
CCO/C=N/C1=C(C#N)C(c2ccc(OC)cc2)c2sc3c(C)cccc3c2O1 (stereo unspecified) = 23.5

Prompt: What does the record list as growth for `CN(C)CCNC(=O)c1ccc(-c2nc3ccc4[nH]ncc4c3c3c2COCC3)cc1` ?
Response: 0.287

Prompt: Would you mind doing `O=C(CN1CCN(c2cc(=O)n(-c3ccccc3)c3ccccc23)CC1)Nc1nc(-c2ccccc2)cs1` as well?
Response: 27.6

Prompt: Would you mind doing COc1c(N2CC3CCCNC3C2)c(F)cc2c(=O)c(C(=O)N/N=C/c3ccccc3)cn(C3CC3)c12 (stereo unspecified) as well?
Response: 84.1

Prompt: Would you mind doing `NC(N)=Nc1ccc(Oc2cccc(NC(N)=Nc3ccc(Br)cc3)c2)cn1` as well?
Response: 10.8

Prompt: Would you mind doing `CCOc1ccc(NC2=C(Cl)C(=O)c3nc(C)ccc3C2=O)cc1` as well?
Response: -67

Prompt: Would you mind doing `CC(C)C[C@@H]1N[C@@]2(C(=O)Nc3ccccc32)[C@@H](c2ccc(F)cc2)[C@@H]1C(=O)c1ccc(O)cc1` as well?
Response: 92.5

Prompt: Would you mind doing CCOC(=O)C1=NNC(c2ccc(Cl)cc2)C1C(=O)N1C(=S)NC(=O)C1CC(C)C (stereo unspecified) as well?
Response: 91.5

Prompt: Would you mind doing `COc1ccc2c(c1)c(CC(=O)[Se]CC(=O)O)c(C)n2C(=O)c1ccc(Cl)cc1` as well?
Response: 37.4
